Assay: Toxicokinetics in 13-week topical ocular dog study
Conditions: female, beagle, in vivo, topical or ocular, 30 mg/mL/occasion, female dogs, 30 mg/mL, 6 daily doses, Week 13, read-out: Cmax
measurement_label: Cmax (ng/mL)
Answer in ng/mL, number only, no unit symbol.

Problem: Would you mind telling me what Cmax value was observed for Cc1ccccc1OCC(=O)N[C@@H](CC(C)C)C(=O)N[C@@H](Cc1ccc(OC(=O)N2CCC(C(N)=O)CC2)cc1)C(=O)O [GW559090] ?
Result: 17.5

----------
Test: Toxicokinetics in 13-week topical ocular rabbit study
Conditions: male, New Zealand White, in vivo, topical or ocular, 30 mg/mL/occasion, male rabbits, 30 mg/mL, 6 daily doses, Day 1, read-out: AUC0-1
Experimental: GW559090A was given to New Zealand White Rabbits by topical ocular administration for 13 weeks. Animals were dosed six or twelve times per day, with one hour between doses. Treatment groups were: (1) vehicle (12 times a day), (2) 30 mg/mL/occasion given six times a day, (3) 50 mg/mL/occasion given six times a day, or (4) 50 mg/mL/occasion, given 12 times a day. […]
measurement_label: AUC(0-t) (ng·h/mL)
Field format: number, assumed ng·h/mL, no unit text.

Problem: Can you look up the measured AUC(0-t) of Cc1ccccc1OCC(=O)N[C@@H](CC(C)C)C(=O)N[C@@H](Cc1ccc(OC(=O)N2CCC(C(N)=O)CC2)cc1)C(=O)O for me?
Result: 7.86

----------
Test: PK study in rabbits, ocular tissue concentrations (LC-MS/MS)
Assay type: in vivo, New Zealand White rabbits
Conditions: male, New Zealand White, rabbit, cornea, topical or ocular; single topical 40 μL (50 mg/mL) GW559090A, both studies; read-out: Tmax in cornea
measurement_label: Tmax (min)
Respond with the bare value in min.

Problem: Param item = Cc1ccccc1OCC(=O)N[C@@H](CC(C)C)C(=O)N[C@@H](Cc1ccc(OC(=O)N2CCC(C(N)=O)CC2)cc1)C(=O)O ; retrieve measured Tmax.
Result: 30

----------
Test: Toxicokinetics in 13-week topical ocular rabbit study
Settings: male, New Zealand White, in vivo, topical or ocular, 30 mg/mL/occasion, male rabbits, 30 mg/mL, 6 daily doses, Week 13, read-out: AUC0-1
measurement_label: AUC(0-t) (ng·h/mL)
# unit: ng·h/mL | format: bare number

Problem: Could you share which AUC(0-t) value was measured for Cc1ccccc1OCC(=O)N[C@@H](CC(C)C)C(=O)N[C@@H](Cc1ccc(OC(=O)N2CCC(C(N)=O)CC2)cc1)C(=O)O ?
Result: 9.1

----------
Experiment: Toxicokinetics in 13-week topical ocular rabbit study
Settings: female, New Zealand White, in vivo, topical or ocular, 50 mg/mL/occasion, female rabbits, 50 mg/mL, 6 daily doses, Day 1, after the first daily dose
measurement_label: Cmax

Problem: Would you mind telling me what Cmax value was observed for Cc1ccccc1OCC(=O)N[C@@H](CC(C)C)C(=O)N[C@@H](Cc1ccc(OC(=O)N2CCC(C(N)=O)CC2)cc1)C(=O)O ?
Result: 67.8 ng/mL

----------
Test: Toxicokinetics in 13-week topical ocular rabbit study
Conditions: female, New Zealand White, in vivo, topical or ocular, 30 mg/mL/occasion, female rabbits, 30 mg/mL, 6 daily doses, Week 13, read-out: AUC0-1
measurement_label: AUC(0-t) (ng·h/mL)
# unit: ng·h/mL | format: bare number

Problem: Param item = Cc1ccccc1OCC(=O)N[C@@H](CC(C)C)C(=O)N[C@@H](Cc1ccc(OC(=O)N2CCC(C(N)=O)CC2)cc1)C(=O)O ; retrieve measured AUC(0-t).
Result: 9.83

----------
Test: Toxicokinetics in 13-week topical ocular dog study
Details: female, beagle, in vivo, topical or ocular, 50 mg/mL/occasion, female dogs, 50 mg/mL, 12 daily doses, Day 1
Protocol: GW559090A was given to Beagle Dogs by topical ocular administration for 13 weeks. Animals were dosed six or twelve times per day, with one hour between doses. Treatment groups were: (1) vehicle (12 times a day), (2) 30 mg/mL/occasion given six times a day, (3) 50 mg/mL/occasion given six times a day, or (4) 50 mg/mL/occasion, given 12 times a day. […]
measurement_label: Tmax (min)
The figure you give is taken to be in min; do not add the unit.

Problem: So what's the measured Tmax for this one? Cc1ccccc1OCC(=O)N[C@@H](CC(C)C)C(=O)N[C@@H](Cc1ccc(OC(=O)N2CCC(C(N)=O)CC2)cc1)C(=O)O
Result: 30

----------
Experiment: Toxicokinetics in 13-week topical ocular rabbit study
Details: female, New Zealand White, in vivo, topical or ocular, 50 mg/mL/occasion, female rabbits, 50 mg/mL, 12 daily doses, Week 4, after the first daily dose
measurement_label: Tmax (min)
Report the value in min with no unit label.

Problem: Quick one: Tmax for Cc1ccccc1OCC(=O)N[C@@H](CC(C)C)C(=O)N[C@@H](Cc1ccc(OC(=O)N2CCC(C(N)=O)CC2)cc1)C(=O)O ?
Result: 4.98

----------
Assay: Toxicokinetics in 13-week topical ocular rabbit study
Settings: female, New Zealand White, in vivo, topical or ocular, 50 mg/mL/occasion, female rabbits, 50 mg/mL, 12 daily doses, Week 4, after the first daily dose
measurement_label: Cmax
Remember to put the unit after the number in your answer.

Problem: Query (compound): Cc1ccccc1OCC(=O)N[C@@H](CC(C)C)C(=O)N[C@@H](Cc1ccc(OC(=O)N2CCC(C(N)=O)CC2)cc1)C(=O)O ; field requested: Cmax
Result: 56.6 ng/mL

----------
Assay: Toxicokinetics in 13-week topical ocular dog study
Settings: female, beagle, in vivo, topical or ocular, 50 mg/mL/occasion, female dogs, 50 mg/mL, 12 daily doses, Week 4
measurement_label: Tmax (min)
Your answer is read as min, so omit the unit and give the number.

Problem: May I ask what Tmax has been recorded for Cc1ccccc1OCC(=O)N[C@@H](CC(C)C)C(=O)N[C@@H](Cc1ccc(OC(=O)N2CCC(C(N)=O)CC2)cc1)C(=O)O ?
Result: 10

----------
Experiment: Toxicokinetics in 13-week topical ocular rabbit study
Settings: female, New Zealand White, in vivo, topical or ocular, 50 mg/mL/occasion, female rabbits, 50 mg/mL, 6 daily doses, Week 4, read-out: AUC0-24
measurement_label: AUC(0-t) (ng·h/mL)
Give the value, in units of ng·h/mL, as a plain number.

Problem: Any idea what its AUC(0-t) is? The compound is Cc1ccccc1OCC(=O)N[C@@H](CC(C)C)C(=O)N[C@@H](Cc1ccc(OC(=O)N2CCC(C(N)=O)CC2)cc1)C(=O)O [GW559090]
Result: 75.6

----------
Experiment: Toxicokinetics in 13-week topical ocular dog study
Conditions: male, beagle, in vivo, topical or ocular, 50 mg/mL/occasion, male dogs, 50 mg/mL, 12 daily doses, Week 13
measurement_label: Tmax (min)
Give just the numeric value; min need not be written.

Problem: Query (compound): Cc1ccccc1OCC(=O)N[C@@H](CC(C)C)C(=O)N[C@@H](Cc1ccc(OC(=O)N2CCC(C(N)=O)CC2)cc1)C(=O)O ; field requested: Tmax
Result: 15

----------
Target: α4β1-VCAM-1 (Homo sapiens, UniProt P05556+P13612)
Construct: characterized in human J6 cells which express VLA-4; endogenous in cells; host or cells: Jurkat J6 cells (human lymphoblast cell line)
Sequence (P13612 34-1032): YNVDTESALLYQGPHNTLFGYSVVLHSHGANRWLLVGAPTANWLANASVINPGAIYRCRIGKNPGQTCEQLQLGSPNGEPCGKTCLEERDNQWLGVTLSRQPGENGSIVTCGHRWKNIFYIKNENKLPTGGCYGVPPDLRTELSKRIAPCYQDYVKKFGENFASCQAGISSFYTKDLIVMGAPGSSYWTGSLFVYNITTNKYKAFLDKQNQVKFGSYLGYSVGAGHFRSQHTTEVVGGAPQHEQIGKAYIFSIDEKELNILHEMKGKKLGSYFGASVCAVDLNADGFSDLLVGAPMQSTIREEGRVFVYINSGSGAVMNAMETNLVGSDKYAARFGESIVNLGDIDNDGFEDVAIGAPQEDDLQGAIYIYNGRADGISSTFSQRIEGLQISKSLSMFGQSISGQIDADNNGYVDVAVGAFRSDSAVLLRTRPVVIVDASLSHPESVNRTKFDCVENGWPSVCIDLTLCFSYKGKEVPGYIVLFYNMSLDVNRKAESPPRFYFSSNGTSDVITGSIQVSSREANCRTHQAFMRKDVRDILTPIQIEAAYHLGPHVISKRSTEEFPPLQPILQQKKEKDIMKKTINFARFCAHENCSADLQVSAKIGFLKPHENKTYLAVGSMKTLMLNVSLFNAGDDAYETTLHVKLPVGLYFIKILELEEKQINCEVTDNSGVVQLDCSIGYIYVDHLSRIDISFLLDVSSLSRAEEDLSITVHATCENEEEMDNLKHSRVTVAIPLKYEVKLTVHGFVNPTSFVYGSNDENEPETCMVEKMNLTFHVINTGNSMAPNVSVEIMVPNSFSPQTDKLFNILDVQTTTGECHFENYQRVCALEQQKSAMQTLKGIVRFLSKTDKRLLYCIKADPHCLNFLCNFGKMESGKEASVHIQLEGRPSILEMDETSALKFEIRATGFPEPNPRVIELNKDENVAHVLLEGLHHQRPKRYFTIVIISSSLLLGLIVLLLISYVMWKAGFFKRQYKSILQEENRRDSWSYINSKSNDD
Sequence (P05556 21-798): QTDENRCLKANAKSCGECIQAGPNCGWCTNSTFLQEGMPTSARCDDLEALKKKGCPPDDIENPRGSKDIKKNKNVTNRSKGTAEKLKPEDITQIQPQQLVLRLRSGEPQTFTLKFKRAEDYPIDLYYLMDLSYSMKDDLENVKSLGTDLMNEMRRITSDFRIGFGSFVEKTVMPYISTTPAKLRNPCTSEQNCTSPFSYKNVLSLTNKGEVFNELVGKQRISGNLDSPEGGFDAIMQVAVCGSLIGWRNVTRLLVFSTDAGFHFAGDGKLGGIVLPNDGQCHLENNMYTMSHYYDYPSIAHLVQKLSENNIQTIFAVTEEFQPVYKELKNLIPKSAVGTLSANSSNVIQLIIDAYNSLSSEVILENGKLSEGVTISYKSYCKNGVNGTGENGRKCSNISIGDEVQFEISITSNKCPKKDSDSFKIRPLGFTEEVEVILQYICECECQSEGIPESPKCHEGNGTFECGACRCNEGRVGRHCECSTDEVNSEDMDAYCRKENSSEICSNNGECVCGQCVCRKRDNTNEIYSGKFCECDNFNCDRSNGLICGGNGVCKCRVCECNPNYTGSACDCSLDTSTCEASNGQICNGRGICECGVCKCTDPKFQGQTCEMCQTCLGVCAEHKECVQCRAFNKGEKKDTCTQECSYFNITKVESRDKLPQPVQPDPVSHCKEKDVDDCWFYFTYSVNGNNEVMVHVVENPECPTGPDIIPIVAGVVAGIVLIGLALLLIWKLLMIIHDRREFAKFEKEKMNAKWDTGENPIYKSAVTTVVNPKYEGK
Experiment: VCAM cell adhesion assay, Jurkat J6 cells
Format: cell-based
Settings: J6 cells to VCAM-1; read-out: Inhibition of cell adhesion (IC50)
measurement_label: IC50

Problem: # query: IC50 | item Cc1ccccc1OCC(=O)N[C@@H](CC(C)C)C(=O)N[C@@H](Cc1ccc(OC(=O)N2CCC(C(N)=O)CC2)cc1)C(=O)O | system: α4β1-VCAM-1 (Homo sapiens, UniProt P05556+P13612)
Result: 7.72 nM

----------
Experiment: Toxicokinetics in 13-week topical ocular dog study
Conditions: female, beagle, in vivo, topical or ocular, 30 mg/mL/occasion, female dogs, 30 mg/mL, 6 daily doses, Day 1, read-out: AUC0-24
measurement_label: AUC(0-t)

Problem: I have this compound here, Cc1ccccc1OCC(=O)N[C@@H](CC(C)C)C(=O)N[C@@H](Cc1ccc(OC(=O)N2CCC(C(N)=O)CC2)cc1)C(=O)O , and I need its recorded AUC(0-t).
Result: 31.6 ng·h/mL

----------
Experiment: Toxicokinetics in 13-week topical ocular dog study
Conditions: female, beagle, in vivo, topical or ocular, 50 mg/mL/occasion, female dogs, 50 mg/mL, 12 daily doses, Week 4, read-out: AUC0-24
measurement_label: AUC(0-t)

Problem: Can you look up the measured AUC(0-t) of Cc1ccccc1OCC(=O)N[C@@H](CC(C)C)C(=O)N[C@@H](Cc1ccc(OC(=O)N2CCC(C(N)=O)CC2)cc1)C(=O)O for me?
Result: 81.2 ng·h/mL

----------
Experiment: Toxicokinetics in 13-week topical ocular rabbit study
Settings: male, New Zealand White, in vivo, topical or ocular, 30 mg/mL/occasion, male rabbits, 30 mg/mL, 6 daily doses, Week 4, after the first daily dose
measurement_label: Tmax (min)
Express the result in min but write the number alone.

Problem: Please report the recorded Tmax for Cc1ccccc1OCC(=O)N[C@@H](CC(C)C)C(=O)N[C@@H](Cc1ccc(OC(=O)N2CCC(C(N)=O)CC2)cc1)C(=O)O .
Result: 4.98
